The measurements presented in this section are drawn from patent US20250288584A1.

- system_tested: human mGlu2 receptor (Homo sapiens)
- Construct: expressed in transfected cells; host or cells: CHO cells
- Sequence (Q14416 19-872): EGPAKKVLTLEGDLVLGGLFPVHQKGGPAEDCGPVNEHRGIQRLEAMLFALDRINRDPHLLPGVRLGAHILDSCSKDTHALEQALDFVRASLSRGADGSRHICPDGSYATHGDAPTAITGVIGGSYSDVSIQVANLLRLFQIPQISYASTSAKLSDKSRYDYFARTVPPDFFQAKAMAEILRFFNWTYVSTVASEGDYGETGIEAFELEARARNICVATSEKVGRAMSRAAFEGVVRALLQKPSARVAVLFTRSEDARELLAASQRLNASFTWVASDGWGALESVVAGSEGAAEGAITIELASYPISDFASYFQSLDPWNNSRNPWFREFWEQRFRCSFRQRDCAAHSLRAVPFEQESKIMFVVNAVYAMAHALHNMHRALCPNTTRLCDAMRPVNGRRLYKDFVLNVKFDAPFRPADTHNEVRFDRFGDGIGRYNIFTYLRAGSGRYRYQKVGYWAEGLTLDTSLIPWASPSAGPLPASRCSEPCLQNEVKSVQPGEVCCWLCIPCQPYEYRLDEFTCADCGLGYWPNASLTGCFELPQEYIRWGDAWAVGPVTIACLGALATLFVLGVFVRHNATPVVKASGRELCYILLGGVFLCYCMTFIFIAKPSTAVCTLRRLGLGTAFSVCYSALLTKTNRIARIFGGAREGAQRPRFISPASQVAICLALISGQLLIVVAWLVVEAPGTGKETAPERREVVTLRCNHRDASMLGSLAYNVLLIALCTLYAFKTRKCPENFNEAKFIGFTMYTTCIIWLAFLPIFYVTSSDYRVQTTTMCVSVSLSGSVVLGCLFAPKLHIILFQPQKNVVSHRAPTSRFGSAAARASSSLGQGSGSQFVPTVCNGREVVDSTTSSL
- experiment_notes: [35S]GTPγS binding assay, mGluR2 PAM
- Assay type: biochemical
- details: maximal % effect relative to control glutamate response; EC20 glutamate; read-out: GTPγS-hmGluR2 PAM Emax
Decision: Emax beneath 300% gives rule met; Emax meeting or exceeding 300% gives rule not met.

Use these answered entries as a reference point.
Fc1ccc(N2CCN(Cc3ccn4c(CC5CC5)nnc4c3Cl)CC2)c(F)c1 [Co. No. 5]    rule met
O=c1c(Cl)c(N2CCC(c3ccc(N4CCOCC4)cc3)CC2)ccn1CC1CC1 [Co. No. 13-a]    rule met
Fc1cnc(N2CCN(Cc3ccn4c(CC5CC5)nnc4c3C(F)(F)F)CC2)c(F)c1 [Co. No. 13]    rule met

Ask: Below 300% on Emax? Entry CC(C)Cn1ccc(N2CCC(c3ccccc3)CC2)c(Cl)c1=O [Co. No. 19-a]
Result: rule met

Ask: Criterion: Emax strictly below 300%. Is it met by O=c1c(Cl)c(N2CCC(F)(c3ccccc3)CC2)ccn1CC1CC1 [Co. No. 17-a] ?
Result: rule met

Ask: Answer whether the molecule COc1cnc(N2CCN(c3ccn4c(CC5CC5)nnc4c3C(F)(F)F)CC2)nc1 [Co. No. 9] has Emax strictly less than 300%
Result: rule not met

Ask: Check if Emax falls below 300% for CC(Oc1ccc(F)cc1F)c1ccn2c(CC3CC3)nnc2c1C(F)(F)F (centres unmarked) [Co. No. 4-b] .
Result: rule not met

Ask: Strictly below 300%: is that where Emax of COc1cc(F)ccc1O[C@@H](C)c1ccn2c(CC3CC3)nnc2c1C(F)(F)F [Co. No. 12-b] sits?
Result: rule met

Ask: API: query returns whether the molecule falls strictly under 300% in Emax. Query: C[C@@H](Oc1ccc(F)cc1F)c1ccn2c(CC3CC3)nnc2c1C(F)(F)F [Co. No. 5-b]
Result: rule met

Ask: Identify whether the molecule CCCCn1ccc(N2CCC3(CC2)COc2ccccc23)c(Cl)c1=O [Co. No. 33-a] records Emax below 300%.
Result: rule not met

Ask: Is it true that Emax reported for CC(C)CCn1ccc(N2CCC(F)(c3ccccc3)CC2)c(Cl)c1=O [Co. No. 23-a] is less than 300%?
Result: rule met

Ask: Report whether reported Emax is lower than 300% (strictly) for N#CC1(c2ccccc2)CCN(c2ccn(CC3CC3)c(=O)c2Cl)CC1 [Co. No. 6-a]
Result: rule met

Ask: # TODO verify Emax < 300% strictly for this molecule: Cc1ccc(O[C@@H](C)c2ccn3c(CC4CC4)nnc3c2C(F)(F)F)c(Cl)c1 [Co. No. 13-b]
Result: rule met

----------
- experiment_notes: Plasma and brain levels (pK/pD analysis)
- Format: in vivo, mice
- details: mouse, brain, intraperitoneal, 10 mg/kg, LEV 10 mg/kg alone (Co. No. 2 study); read-out: Mean Brain Level (non-combination) LEV
reported_property: concentration at 1 h (ng/mL)
Just the number in ng/mL, nothing appended.

Ask: Please supply the value of reported concentration at 1 h for the item CC[C@@H](C(N)=O)N1CCCC1=O [LEV, (S)-2-(2-oxopyrrolidin-1-yl) butanamide, reference compound]
Result: 5770

----------
- experiment_notes: Plasma and brain levels (pK/pD analysis)
- Type: in vivo, mice
- details: mouse, plasma, intraperitoneal, 10 mg/kg, LEV 10 mg/kg alone (Co. No. 1 study); read-out: Mean Plasma Levels (non-combination) LEV
reported_property: concentration at 1 h (ng/mL)
// note: answer is a bare numeric in ng/mL

Ask: Specify concentration at 1 h for CC[C@@H](C(N)=O)N1CCCC1=O [LEV, (S)-2-(2-oxopyrrolidin-1-yl) butanamide, reference compound] and stop.
Result: 8250
